FYI, the data here is from patent US20140135310A1.

For each of the molecules below, state its inhibition at 1 µM.
target: M3 muscarinic receptors (Homo sapiens); construct: expressed in transfected cells; host or cells: CHO cells; assay: Radioligand binding assay, muscarinic M3 receptors; conditions: test compound 1×10^−6 M
Sequence (P20309 whole entry): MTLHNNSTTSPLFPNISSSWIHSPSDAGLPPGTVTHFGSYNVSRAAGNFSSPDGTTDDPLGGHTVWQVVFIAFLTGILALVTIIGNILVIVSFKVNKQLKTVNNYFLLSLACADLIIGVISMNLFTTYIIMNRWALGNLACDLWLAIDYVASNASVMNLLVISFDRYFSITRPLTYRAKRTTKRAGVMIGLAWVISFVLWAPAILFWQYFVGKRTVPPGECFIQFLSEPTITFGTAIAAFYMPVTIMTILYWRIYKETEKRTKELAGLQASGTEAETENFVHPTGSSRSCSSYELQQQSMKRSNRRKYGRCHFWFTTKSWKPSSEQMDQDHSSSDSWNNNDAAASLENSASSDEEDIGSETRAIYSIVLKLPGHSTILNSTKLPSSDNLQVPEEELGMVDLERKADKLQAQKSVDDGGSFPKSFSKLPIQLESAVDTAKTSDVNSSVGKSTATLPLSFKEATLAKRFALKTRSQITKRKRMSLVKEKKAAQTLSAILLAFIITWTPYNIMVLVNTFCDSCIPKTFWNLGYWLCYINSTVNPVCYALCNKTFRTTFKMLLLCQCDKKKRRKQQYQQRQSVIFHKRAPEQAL

Answered cases to consult:
[[record]]
molecule = "O=S(=O)(NCC1CN(CCCc2noc3cc(F)ccc23)C1)c1ccc(-c2ccccc2)cc1 [Compound 135]"
experimental_target = "M3 muscarinic receptors (Homo sapiens)"
observed = "19%"

[[record]]
molecule = "O=S(=O)(NC1CCN(CCCc2noc3cc(F)ccc23)C1)c1ccc2cc(Cl)ccc2c1 (centres unmarked) [Compound 23]"
experimental_target = "M3 muscarinic receptors (Homo sapiens)"
observed = "10%"

[[record]]
molecule = "O=S(=O)(N[C@@H]1CCN(CCCc2noc3cc(F)ccc23)C1)c1cc2ccccc2o1 [Compound 214]"
experimental_target = "M3 muscarinic receptors (Homo sapiens)"
observed = "11%"


Batch request: inhibition at 1 µM per item, same order as input.
1. O=S(=O)(NC1CCN(CCCc2c[nH]c3ccc(Cl)cc23)C1)c1cccc(F)c1 (centres unmarked) [Compound 82]
2. Cc1c(S(=O)(=O)N[C@@H]2CCN(CCCc3noc4cc(F)ccc34)C2)sc2ccc(Cl)cc12 [Compound 204]
3. O=S(=O)(NCC1CCN(CCCc2noc3cc(F)ccc23)C1)c1ccc2ccccc2c1 (centres unmarked) [Compound 240]
4. Cc1c(S(=O)(=O)N[C@H]2CCN(CCCc3noc4cc(F)ccc34)C2)sc2ccc(Cl)cc12 [Compound 205]
5. Cc1cccc(S(=O)(=O)NC2CN(CCOc3cccc4[nH]ccc34)C2)c1 [Compound 48]
6. O=S(=O)(NC1CCN(CCCc2noc3cc(F)ccc23)C1)c1ccc(Cl)c(F)c1 (centres unmarked) [Compound 11]

["9%", "17%", "21%", "3%", "1%", "3%"]
